Catalogue of IC50 values
- Study system: Laforin (Homo sapiens, UniProt O95278)
- Construct: made in house; host or cells: E. coli
- Sequence (O95278 whole entry, species assumed): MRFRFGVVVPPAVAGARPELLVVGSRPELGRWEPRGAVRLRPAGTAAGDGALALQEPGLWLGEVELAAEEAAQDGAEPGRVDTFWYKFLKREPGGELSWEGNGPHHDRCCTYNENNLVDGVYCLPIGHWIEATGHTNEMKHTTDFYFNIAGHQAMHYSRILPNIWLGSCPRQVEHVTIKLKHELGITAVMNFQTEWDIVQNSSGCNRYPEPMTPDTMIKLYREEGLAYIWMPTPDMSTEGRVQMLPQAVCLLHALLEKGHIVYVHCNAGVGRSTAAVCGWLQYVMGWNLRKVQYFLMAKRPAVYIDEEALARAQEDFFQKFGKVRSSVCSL
- Test protocol: Tyrosine phosphatase selectivity (pNPP substrate), Laforin
- Assay type: biochemical
- Study conditions: Laforin, pNPP substrate
Enter your answer as a number in µM; do not include the unit.

Some solved cases for reference:
Cn1c(-c2cccc(NC(=O)C(=O)Nc3ccc(-c4ccsc4)cc3)c2)c(I)c2cc(C(=O)O)c(O)cc21 [Example 11a-1, reference compound]
12.2
O=C(Nc1ccc(-c2cc3cc(F)c(-c4nnn[nH]4)cc3n2C2CCC2)cc1)C(=O)Nc1ccc(N2CC3COCC3C2)cc1 (stereo not shown)
2.44

Q. Find the recorded IC50 belonging to O=C(Nc1ccc(-c2cc3cc(F)c(-c4nnn[nH]4)cc3n2C2CCC2)cc1)C(=O)Nc1ccc(N2CCOCC2)cc1 and report it.
A. 0.61
